# Tested on: Staphylococcus aureus
# protocol.text: Bactericidal activity against methicillin-resistant Staphylococcus aureus USA300 after 18 to 20 hrs by microdilution method
# Assay type: functional
recorded.endpoint: MBC

Worked set:
# chemical.smiles, target.or.test.system, endpoint.result
data = [
    ("O=C(c1ccccc1)N(/N=N/c1ccc([N+](=O)[O-])cc1C(F)(F)F)c1ccc([N+](=O)[O-])cc1C(F)(F)F", "Staphylococcus aureus", "0.5 to 2 µg/mL"),
    ("CC(=O)N(/N=N/c1ccc([N+](=O)[O-])cc1Cl)c1ccc([N+](=O)[O-])cc1Cl", "Staphylococcus aureus", "4 µg/mL"),
]

Tested on Staphylococcus aureus: O=C(c1cccnc1)N(/N=N/c1ccc([N+](=O)[O-])c(C(F)(F)F)c1)c1ccc([N+](=O)[O-])c(C(F)(F)F)c1 . Observed MBC: 4 µg/mL

Record for O=[N+]([O-])c1ccc(/N=N/Nc2ccc([N+](=O)[O-])cc2Cl)c(Cl)c1 under target or system Staphylococcus aureus: MBC reported as 4 µg/mL
